# IC50 listing for each entry below
target: T1, TBD-11 (HC R98A); experiment: competition ELISA, peptide vs Fab binding to captured biotin-TROP2
T1 construct: Fab; also called HC R98A mutant
T1 sequence (VH, as listed by the source, chain 1 of 2): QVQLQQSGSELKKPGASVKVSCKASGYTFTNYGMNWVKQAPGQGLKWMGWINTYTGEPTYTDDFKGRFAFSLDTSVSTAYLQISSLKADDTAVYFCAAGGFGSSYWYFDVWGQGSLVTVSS
T1 sequence (VL, as listed by the source, chain 2 of 2): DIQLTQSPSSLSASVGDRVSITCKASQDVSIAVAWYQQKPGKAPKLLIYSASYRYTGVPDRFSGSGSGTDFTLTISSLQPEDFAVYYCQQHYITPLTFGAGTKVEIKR
Where no end group is shown, it is not given here.
measurement.type: IC50 (µM)

                                      binder  result_value
 0  IDFCAMYQWPICDT (cysteine pairing not given here; also: biotinylated (site not given here)) [Peptide-1]          2.49
 1  VDFCELYRWPICNS (cysteine pairing not given here; also: biotinylated (site not given here)) [Peptide-13]          2.68
 2  LDFCKIYDWPICHL (cysteine pairing not given here; also: biotinylated (site not given here)) [Peptide-14]          3.42
 3  VDFCKLYNWPVCQT (cysteine pairing not given here; also: biotinylated, site not given here) [Peptide-5]          7.23
 4  VDFCKIYSWPVCHQ (cysteine pairing not given here; also: biotinylated (site not given here)) [Peptide-25]           8.1
 5  PDFCAVYRWPICYQ (cysteine pairing not given here; also: biotinylated (site not given here)) [Peptide-12]          0.85
 6  IDFCLIYNWPVCDT (cysteine pairing not given here; also: biotinylated, site not given here) [Peptide-6]          8.84
 7  IDFCLLYDWPICGR (cysteine pairing not given here; also: biotinylated (site not given here)) [Peptide-17]          1.95
 8  IDFCAIYQWPVCRS (cysteine pairing not given here; also: biotinylated (site not given here)) [Peptide-10]          4.04
 9  SYLVCVKNVYCWTA (cysteine pairing not given here; also: biotinylated, site not given here) [Peptide-29]          9.17
10  VDFCGLYHWPICYQ (cysteine pairing not given here; also: biotinylated, site not given here) [Peptide-8]           0.3

Where do the numbers come from? From patent US20230357429A1.
